Biological target: Glucagon-like peptide 1 receptor (Rattus norvegicus)
Assay: Inhibition of [125I]GLP1 (7-36) amide binding to rat GLP1R expressed in HEK293 cells relative to untreated control
Format: cell-based
Set-up: concentration or dose not given beside the values
Details: concentration not given here
Endpoint: inhibition (%)

>>> recorded_value("COc1cc([C@H]2[C@](NC(=O)c3ccc(NC(=O)OC(C)(C)C)cc3)(C(=O)O)[C@@H](c3ccc(OC(=O)C45CC6CC(CC(C6)C4)C5)c(OC)c3)[C@]2(NC(=O)c2ccc(NC(=O)OC(C)(C)C)cc2)C(=O)O)ccc1OC(=O)C12CC3CC(CC(C3)C1)C2")
75.8
>>> recorded_value("COc1cc([C@H]2[C@](NC(=O)c3ccc(NC(=O)C4CC4)cc3)(C(=O)O)[C@@H](c3ccc(OC(=O)c4cccs4)c(OC)c3)[C@]2(NC(=O)c2ccc(NC(=O)C3CC3)cc2)C(=O)O)ccc1OC(=O)c1cccs1")
86.4
>>> recorded_value("CCOC(=O)CNC(=O)Nc1ccc(C(=O)N[C@]2(C(=O)O)[C@H](c3ccc(OC(=O)c4cccs4)c(OC)c3)[C@@](NC(=O)c3ccc(NC(=O)NCC(=O)OCC)cc3)(C(=O)O)[C@@H]2c2ccc(OC(=O)c3cccs3)c(OC)c2)cc1")
43.8
>>> recorded_value("CCC(=O)Nc1ccc(C(=O)N[C@]2(C(=O)O)[C@H](c3ccc(OC(=O)c4cccs4)c(OC)c3)[C@@](NC(=O)c3ccc(NC(=O)CC)cc3)(C(=O)O)[C@@H]2c2ccc(OC(=O)c3cccs3)c(OC)c2)cc1")
75.2
>>> recorded_value("CCCC(=O)Nc1ccc(C(=O)N[C@]2(C(=O)O)[C@H](c3ccc(OC(=O)c4cccs4)c(OC)c3)[C@@](NC(=O)c3ccc(NC(=O)CCC)cc3)(C(=O)O)[C@@H]2c2ccc(OC(=O)c3cccs3)c(OC)c2)cc1")
52.4

====

Molecular target: Glucagon-like peptide 1 receptor (Rattus norvegicus) (UniProt P32301)
Sequence (P32301 whole entry): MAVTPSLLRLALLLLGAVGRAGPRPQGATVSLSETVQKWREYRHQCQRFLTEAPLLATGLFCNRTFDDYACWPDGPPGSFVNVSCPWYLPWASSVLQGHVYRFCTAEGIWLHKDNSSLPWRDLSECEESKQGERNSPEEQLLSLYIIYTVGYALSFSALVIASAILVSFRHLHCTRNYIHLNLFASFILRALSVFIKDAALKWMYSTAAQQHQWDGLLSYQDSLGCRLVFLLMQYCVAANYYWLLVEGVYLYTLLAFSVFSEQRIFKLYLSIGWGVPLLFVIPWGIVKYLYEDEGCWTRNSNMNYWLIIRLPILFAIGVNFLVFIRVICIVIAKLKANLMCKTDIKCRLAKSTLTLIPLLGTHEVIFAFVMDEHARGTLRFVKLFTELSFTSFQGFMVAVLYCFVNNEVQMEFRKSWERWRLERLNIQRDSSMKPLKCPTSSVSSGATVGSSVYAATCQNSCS
Assay: Inhibition of [125I]Exendin (9-39) binding to rat GLP1R expressed in HEK293 cells
Type: cell-based
Parameters: concentration or dose not given beside the values
Conditions: concentration not given here
Below, each entry is listed alongside its reported inhibition.
Endpoint: inhibition

>>> recorded_value("COc1cc([C@H]2[C@](NC(=O)c3ccc(NC(=O)OC(C)(C)C)cc3)(C(=O)O)[C@@H](c3ccc(OCc4ccc(F)cc4)c(OC)c3)[C@]2(NC(=O)c2ccc(NC(=O)OC(C)(C)C)cc2)C(=O)O)ccc1OCc1ccc(F)cc1")
"< 15%"
>>> recorded_value("COc1ccc([C@H]2[C@](NC(=O)c3ccc(NC(=O)OC(C)(C)C)cc3)(C(=O)O)[C@@H](c3ccc(OC)cc3)[C@]2(NC(=O)c2ccc(NC(=O)OC(C)(C)C)cc2)C(=O)O)cc1")
"2.4%"
>>> recorded_value("CCCOc1ccc([C@H]2[C@](NC(=O)c3ccc(NC(=O)OC(C)(C)C)cc3)(C(=O)O)[C@@H](c3ccc(OCCC)cc3)[C@]2(NC(=O)c2ccc(NC(=O)OC(C)(C)C)cc2)C(=O)O)cc1")
"< 15%"
>>> recorded_value("COc1cc([C@H]2C[C@]2(NC(=O)c2ccc(NC(=O)OC(C)(C)C)cc2)C(=O)O)ccc1OC(=O)c1cccs1")
"< 15%"
>>> recorded_value("COc1cccc([C@H]2[C@](NC(=O)c3ccc(NC(=O)OC(C)(C)C)cc3)(C(=O)O)[C@@H](c3cccc(OC)c3)[C@]2(NC(=O)c2ccc(NC(=O)OC(C)(C)C)cc2)C(=O)O)c1")
"< 15%"

The reported measurements were obtained from ChEMBL document CHEMBL2157924.
